System: Pseudomonas aeruginosa
Experimental Protocol: Antibacterial activity against Pseudomonas aeruginosa isolated from wound infection of patient by Etest
Format: functional
Measured Attribute: MIC (µg/mL)

| Compound | Numeric Value |
| --- | --- |
| C[C@@H](O)[C@H]1C(=O)N2C(C(=O)O)=C(SCCNC=N)C[C@H]12 [IMIPENEM ANHYDROUS] | 16 |
| NCC[C@H](O)C(=O)N[C@@H]1C[C@H](N)[C@@H](O[C@H]2O[C@H](CN)[C@@H](O)[C@H](O)[C@H]2O)[C@H](O)[C@H]1O[C@H]1O[C@H](CO)[C@@H](O)[C@H](N)[C@H]1O [AMIKACIN] | 32 |
| CO/N=C(\C(=O)N[C@@H]1C(=O)N2C(C(=O)[O-])=C(C[N+]3(C)CCCC3)CS[C@H]12)c1csc(N)n1 | 16 |

----------
As shown below, each of these molecules has a reported MIC value.
Test system: Pseudomonas aeruginosa
Experimental Protocol: Antibacterial activity against Pseudomonas aeruginosa PAO1 harboring Pseudomonas aeruginosa plasmid DNA lung biopsy specimen of patient by Etest
Assay type: functional
Measured Attribute: MIC (µg/mL)

| Molecule | Measured Attribute | Numeric Value |
| --- | --- | --- |
| NC[C@H]1O[C@H](O[C@H]2[C@H](O)[C@@H](O[C@H]3O[C@H](CO)[C@@H](O)[C@H](N)[C@H]3O)[C@H](N)C[C@@H]2N)[C@H](N)C[C@@H]1O | MIC | 12 |
| C[C@@H](O)[C@H]1C(=O)N2C(C(=O)O)=C(S[C@@H]3CN[C@H](C(=O)N(C)C)C3)[C@H](C)[C@H]12 | MIC | 0.75 |
| NCC[C@H](O)C(=O)N[C@@H]1C[C@H](N)[C@@H](O[C@H]2O[C@H](CN)[C@@H](O)[C@H](O)[C@H]2O)[C@H](O)[C@H]1O[C@H]1O[C@H](CO)[C@@H](O)[C@H](N)[C@H]1O | MIC | 12 |
| C[C@@H](O)[C@H]1C(=O)N2C(C(=O)O)=C(SCCNC=N)C[C@H]12 [IMIPENEM ANHYDROUS] | MIC | 1 |
| CCN1CCN(C(=O)N[C@@H](C(=O)N[C@@H]2C(=O)N3[C@@H]2SC(C)(C)[C@@H]3C(=O)O)c2ccccc2)C(=O)C1=O | MIC | 32 |
| CO/N=C(\C(=O)N[C@@H]1C(=O)N2C(C(=O)[O-])=C(C[N+]3(C)CCCC3)CS[C@H]12)c1csc(N)n1 | MIC | 8 |

----------
System: Pseudomonas aeruginosa
Experimental Protocol: Antibacterial activity against Pseudomonas aeruginosa PAO1 harboring Pseudomonas aeruginosa plasmid DNA isolated from wound infection of patient by Etest
Format: functional
Measured Attribute: log10 MIC (log10 of the value in µg/mL)

| Compound | Tested On | Numeric Value |
| --- | --- | --- |
| CO/N=C(\C(=O)N[C@@H]1C(=O)N2C(C(=O)[O-])=C(C[N+]3(C)CCCC3)CS[C@H]12)c1csc(N)n1 | Pseudomonas aeruginosa | 0.90 |
| CCN1CCN(C(=O)N[C@@H](C(=O)N[C@@H]2C(=O)N3[C@@H]2SC(C)(C)[C@@H]3C(=O)O)c2ccccc2)C(=O)C1=O | Pseudomonas aeruginosa | 1.20 |
| NCC[C@H](O)C(=O)N[C@@H]1C[C@H](N)[C@@H](O[C@H]2O[C@H](CN)[C@@H](O)[C@H](O)[C@H]2O)[C@H](O)[C@H]1O[C@H]1O[C@H](CO)[C@@H](O)[C@H](N)[C@H]1O | Pseudomonas aeruginosa | 1.08 |
| C[C@@H](O)[C@H]1C(=O)N2C(C(=O)O)=C(SCCNC=N)C[C@H]12 [IMIPENEM ANHYDROUS] | Pseudomonas aeruginosa | 0.00 |
| NC[C@H]1O[C@H](O[C@H]2[C@H](O)[C@@H](O[C@H]3O[C@H](CO)[C@@H](O)[C@H](N)[C@H]3O)[C@H](N)C[C@@H]2N)[C@H](N)C[C@@H]1O | Pseudomonas aeruginosa | 1.08 |
| C[C@@H](O)[C@H]1C(=O)N2C(C(=O)O)=C(S[C@@H]3CN[C@H](C(=O)N(C)C)C3)[C@H](C)[C@H]12 | Pseudomonas aeruginosa | -0.12 |
